- Test system: LOX IMVI melanoma
- assay: NCI tumour cell line growth inhibition, 48 h
Exercise: state measured TGI for each of the compounds provided.
Quick reminder: number only, in µM, skip the unit.

Using LOX IMVI melanoma as the test system, report measured TGI of COC(=O)c1ccccc1NC(=O)C(=O)CC(=O)c1ccccc1NC1=CC(=O)C(=O)c2ccccc21 . 4.76

Using LOX IMVI melanoma as the test system, report measured TGI of COc1cc2c3c(n(CCCN)c(=O)c2cc1OC)-c1ccc(F)cc1C3=O . 4.68

###

- Test system: SF-539 CNS
- assay: NCI tumour cell line growth inhibition, 48 h; in the data active = GI50 below about 0.43 µM; inactive = the rest
The reply should name one outcome from label 1 (active), label 0 (inactive)

Status in this test for NC1=NC(c2ccccc2)N=C(Nc2ccccc2)N1 (centres undefined) ? label 0

Status in this test for CC(CN)[C@@H]1CC[C@]2(CO)CC[C@]3(C)[C@H](CC[C@@H]4[C@@]5(C)CCC(NCCO)C(C)(C)[C@@H]5CC[C@]43C)[C@@H]12 (some centres undefined) ? label 0

Status in this test for CS(=O)(=O)N1CCN(Cc2cc3nc(-c4cccc5[nH]ncc45)nc(N4CCOCC4)c3s2)CC1 (tested in a mixture with another compound) ? label 1

Status in this test for Nc1ccc(C#Cc2cncnc2Nc2ccc(OCc3cccc(F)c3)c(Cl)c2)cc1 ? label 0

Status in this test for Cc1cc(O)c2c(c1)C(=O)c1cc(O)cc(O)c1C2=O ? label 0

Status in this test for COc1c2ccccc2c(O)c2c(=O)c(C(=O)O)cn(C)c12 ? label 0

Status in this test for Cc1cc2c(cc1O)CC[C@@H]1[C@@H]2CC[C@]2(C)[C@@H](O)CC[C@@H]12 ? label 0

Status in this test for COc1cc2c3c(n(CCCN4CCN(C)CC4)c(=O)c2cc1OC)-c1cc2c(cc1C3=O)OCO2 ? label 0

Status in this test for O=C1c2cccnc2-c2nc(/C=C/c3ccccc3)cc3c2c1nc1ccccc13 ? label 0
